- testedTarget: hNAMPT protein (Homo sapiens (Human))
- Sequence (P43490 whole entry): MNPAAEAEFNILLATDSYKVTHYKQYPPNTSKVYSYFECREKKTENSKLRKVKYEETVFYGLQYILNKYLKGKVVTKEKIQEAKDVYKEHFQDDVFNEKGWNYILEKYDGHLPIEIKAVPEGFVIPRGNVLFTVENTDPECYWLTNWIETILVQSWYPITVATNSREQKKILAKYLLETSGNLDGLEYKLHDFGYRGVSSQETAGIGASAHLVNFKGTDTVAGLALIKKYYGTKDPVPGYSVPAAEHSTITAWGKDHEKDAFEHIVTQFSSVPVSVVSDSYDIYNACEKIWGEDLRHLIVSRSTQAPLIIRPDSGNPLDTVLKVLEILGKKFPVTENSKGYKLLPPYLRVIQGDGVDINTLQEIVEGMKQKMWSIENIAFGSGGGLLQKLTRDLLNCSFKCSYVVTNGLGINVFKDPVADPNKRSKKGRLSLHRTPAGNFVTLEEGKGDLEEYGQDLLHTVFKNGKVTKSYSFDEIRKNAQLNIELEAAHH
- protocol: NAMPT enzyme assay (TR-FRET/HTRF, BodiPY ligand, anti 6His-Tb)
- Type: binding
- recordedConditions: NAMPT IC50 range class; read-out: IC50
pIC50: −log10 of the molar value.
reportedMetric: pIC50

> print(dat)
                                   compound  reportedmetric  reported
1  O=C(NCCCn1ccnc1)c1ccc2nc(N3CCC(O)CC3)c(-c3ccccc3)nc2c1           pIC50    > 7.00

// each compound listed below needs its pIC50
1. O=C(NCCc1ncc[nH]1)c1ccc2nc(N3CCCCC3)c(-c3ccc(F)cc3)nc2c1
2. O=C(NCCCc1ncc[nH]1)c1ccc2nc(N3CC4(COC4)C3)c(-c3ccc(F)cc3)nc2c1
3. O=C(NCCCc1ccccn1)c1ccc2nc(-c3ccc(F)cc3)c(-c3ccc(F)cc3)nc2c1
4. O=C(NCCCn1ccnc1)c1ccc2nc(N3CCC(N4CCOCC4)C3)c(-c3ccccc3)nc2c1 (stereo not shown)
5. NS(=O)(=O)c1cccc(-c2nc3cc(C(=O)NCCCc4ncc[nH]4)ccc3nc2-c2ccc(F)cc2)c1
6. Cn1cncc1CCNC(=O)c1ccc2nc(N3CCC(O)CC3)c(-c3ccc(F)cc3)nc2c1

Output line:
6.00 to 6.30
> 7.00
5.00 to 5.70
6.30 to 7.00
6.30 to 7.00
> 7.00
